Biological target: Protein cereblon/Histone-lysine N-methyltransferase EZH2 (Homo sapiens) (UniProt Q15910+Q96SW2)
Sequence (Q15910 whole entry, looked up): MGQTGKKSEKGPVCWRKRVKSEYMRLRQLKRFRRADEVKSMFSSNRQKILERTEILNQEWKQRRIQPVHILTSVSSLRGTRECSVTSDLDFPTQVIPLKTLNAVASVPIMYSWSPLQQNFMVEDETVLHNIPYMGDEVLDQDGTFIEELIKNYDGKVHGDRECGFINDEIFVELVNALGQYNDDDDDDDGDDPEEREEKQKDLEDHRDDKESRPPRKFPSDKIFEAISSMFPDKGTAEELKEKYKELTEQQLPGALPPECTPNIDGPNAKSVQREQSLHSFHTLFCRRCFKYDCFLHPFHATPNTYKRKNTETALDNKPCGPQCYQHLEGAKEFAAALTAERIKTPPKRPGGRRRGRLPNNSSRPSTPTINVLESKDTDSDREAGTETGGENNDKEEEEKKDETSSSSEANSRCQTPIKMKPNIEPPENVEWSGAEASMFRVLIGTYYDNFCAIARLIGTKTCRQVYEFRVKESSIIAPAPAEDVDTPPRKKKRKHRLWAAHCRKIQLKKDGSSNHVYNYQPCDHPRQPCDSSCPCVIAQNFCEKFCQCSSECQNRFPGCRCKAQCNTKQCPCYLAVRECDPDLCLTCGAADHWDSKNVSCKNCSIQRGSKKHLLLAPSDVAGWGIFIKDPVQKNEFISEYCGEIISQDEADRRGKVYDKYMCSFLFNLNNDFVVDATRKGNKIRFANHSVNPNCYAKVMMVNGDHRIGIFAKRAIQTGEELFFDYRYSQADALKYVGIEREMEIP
Sequence (Q96SW2 whole entry, looked up): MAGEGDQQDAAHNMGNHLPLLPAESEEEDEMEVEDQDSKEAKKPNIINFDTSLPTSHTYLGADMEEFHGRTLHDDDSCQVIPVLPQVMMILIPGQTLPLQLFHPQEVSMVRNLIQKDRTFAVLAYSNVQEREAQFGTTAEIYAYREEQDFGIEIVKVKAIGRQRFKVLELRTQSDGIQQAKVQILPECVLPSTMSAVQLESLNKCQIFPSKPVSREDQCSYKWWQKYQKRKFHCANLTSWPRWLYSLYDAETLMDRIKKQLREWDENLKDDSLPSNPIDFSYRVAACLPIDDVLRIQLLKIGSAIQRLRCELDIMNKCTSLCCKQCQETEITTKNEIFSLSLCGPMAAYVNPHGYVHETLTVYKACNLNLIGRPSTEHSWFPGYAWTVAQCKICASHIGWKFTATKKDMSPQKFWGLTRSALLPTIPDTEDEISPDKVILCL
Assay: PROTAC activity at CRBN/EZH2 in human K562 cells assessed as degradation of EZH2 protein expression at 0.1 to 10 uM incubated for 24 hrs by Western blotting analysis
Format: cell-based
Conditions: dose 0.1-10 µM
Active and inactive are the calls of the source. The calls are words filed in the database; no cut-off is given here.
Possible outcomes: active, inactive

[[record]]
compound = "O=C(CCOCCOCCNc1cccc2c1C(=O)N(C1CCC(=O)NC1=O)C2=O)NCCCCN1CCN(c2ccc(-c3cnc(NCc4ccco4)n4cnnc34)cc2)CC1 (stereo unspecified)"
category = "active"

[[record]]
compound = "O=C(CCOCCOCCOCCOCCNc1cccc2c1C(=O)N(C1CCC(=O)NC1=O)C2=O)NCCCCN1CCN(c2ccc(-c3cnc(NCc4ccco4)n4cnnc34)cc2)CC1 (stereo unspecified)"
category = "inactive"

[[record]]
compound = "O=C(CCCCNc1cccc2c1C(=O)N(C1CCC(=O)NC1=O)C2=O)NCCCCN1CCN(c2ccc(-c3cnc(NCc4ccco4)n4cnnc34)cc2)CC1 (stereo unspecified)"
category = "inactive"

[[record]]
compound = "O=C(CCOCCNc1cccc2c1C(=O)N(C1CCC(=O)NC1=O)C2=O)NCCCCN1CCN(c2ccc(-c3cnc(NCc4ccco4)n4cnnc34)cc2)CC1 (stereo unspecified)"
category = "inactive"

[[record]]
compound = "O=C(CCCCCNc1cccc2c1C(=O)N(C1CCC(=O)NC1=O)C2=O)NCCCCN1CCN(c2ccc(-c3cnc(NCc4ccco4)n4cnnc34)cc2)CC1 (stereo unspecified)"
category = "inactive"

[[record]]
compound = "O=C(CNc1cccc2c1C(=O)N(C1CCC(=O)NC1=O)C2=O)NCCCCN1CCN(c2ccc(-c3cnc(NCc4ccco4)n4cnnc34)cc2)CC1 (stereo unspecified)"
category = "active"

